# Protocol notes: NCI Yeast Anticancer Drug Screen. Data for the cln2 rad14 strain (AID 165);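 further: 0% = growth equal to vehicle treated cultures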
# Setup conditions: S. cerevisiae cln2 rad14 strain, at 5.0 µM (retest, dose inferred, filed as 0.5)
# Procedure: Growth inhibition of yeast strains with defined genetic alterations is measured as a screen for potential anti-cancer activity. Selected strains with alterations in DNA damage repair or cell cycle control were exposed to compounds and growth inhibition was measured relative to vehicle treated controls. The strain used in this assay is cln2 rad14
Compounds without any hit were thinned out: in the full panel of roughly 79,000, 15% have a hit. Calls of active or inactive are those of the source. No stated cut-off is given here; in the data, active means growth inhibition above about 70%; inactive means the rest.
Bench note: report the call from active, inactive

Please review the following examples before continuing.
Molecule	Class assignment
CCOC(=O)C(NC(C)=O)[CH](c1ccc(OC)cc1)[Sn]([c]1ccccc1)([c]1ccccc1)[c]1ccccc1 (stereo unspecified)	active
C/C(=N\NC(=S)N/N=C(\C)c1ccccn1)c1ccccn1	active
C=CC1(C)CCC2C(=CCC3C(C)(COC4OC(CO)C(O)C(O)C4O)C(O)CCC23C)C1 (stereo unspecified)	inactive

Exercise: Hi, do you know how O=C1CCCCC1Sc1ccc(Cl)cc1 (stereo unspecified) came out in this test?
Key: inactive

Exercise: Ok, now COc1ccc(C2C(C#N)(C#N)C2(C#N)C#N)cc1
Key: inactive

Exercise: Ok, now COc1ccc(N2C(=O)C(=O)C(C(C)=O)C2=O)cc1 (stereo unspecified)
Key: inactive

====

# Protocol notes: NCI Yeast Anticancer Drug Screen. Data for the bub3 strain (AID 167)
# Setup conditions: S. cerevisiae bub3 mutant strain, at 5.0 µM (retest, dose inferred, filed as 0.5)
Compounds without any hit were thinned out: in the full panel of roughly 79,000, 15% have a hit. Active and inactive are the calls of the source. No stated cut-off is given here; in the data, active means growth inhibition above about 70%; inactive means the rest.
Bench note: report the call from true (1) = active, false (0) = inactive

Exercise: Hi, do you know how CC(C)=CC(=O)OC(CCCc1ccccc1)c1ccc2c(c1)OCO2 (centres undefined) came out in this test?
Key: false (0)

Exercise: Ok, now C#CC(CC)(CC)NC(=O)NC(C)(C)C
Key: false (0)

Exercise: Ok, now O=[N+]([O-])c1cccc(Cl)c1C(Nc1nncs1)Nc1nncs1
Key: false (0)

Exercise: Ok, now Nc1cc(Br)c2cccnc2c1O
Key: false (0)

Exercise: Ok, now CCOC(=O)/C(C)=N/Nc1cc(Cl)ccc1O
Key: false (0)

Exercise: Ok, now CSC(SC)C(SC)SC
Key: false (0)

Exercise: Ok, now COC(=O)/N=C/CCC(O)NC(=O)OC (centres undefined)
Key: false (0)

Exercise: Ok, now O=C(/C(=C/c1ccc2c(c1)OCO2)c1ccccc1)c1ccc(OCCN2CCCC2)cc1
Key: false (0)

====

# Protocol notes: NCI Yeast Anticancer Drug Screen. Data for the mlh1 rad18 strain (AID 175)
# Setup conditions: S. cerevisiae mlh1 rad18 strain growth inhibition; at 50.0 µM; stronger effect = higher value
This is part of a sample that, as a whole, favours compounds with a hit. Of some 79,000 tested, about 15% had one in any assay.
Readout: growth inhibition (%)
Unit % implied. Number only.

Molecule	growth inhibition / %
COc1ccc2c(c1)CC[C@@H]1C2CC[C@]2(C)OC(=O)CCC12 (stereo partly specified)	71.7
ClC1(c2ccccc2)c2ccccc2-c2ccccc21	97.1
Oc1ccc2c(c1)Cc1ccccc1-2	93.1
Cc1cc(N(CCC#N)CCC#N)ccc1/C(Sc1ccccc1)=C(\NC(=O)/C=C/c1ccccc1)C(=O)Sc1ccccc1	75.1

Exercise: If you can, please state the reported growth inhibition value of CC(C=O)Cc1ccccc1 (stereo unspecified) .
Key: -1.45

Exercise: Ok, now O=C(Nc1c(Cl)cc([N+](=O)[O-])cc1Cl)/C(=N\Nc1cccc(Cl)c1)c1c(O)c2ccccc2oc1=O
Key: 47.3

Exercise: Ok, now CCN(CC)C(=O)CCCC1CCCCC1
Key: 26.9

Exercise: Ok, now COc1ccc(/C=C2\CCC(CN3CCOCC3)C2=O)cc1 (stereo unspecified)
Key: 89.7

Exercise: Ok, now COC12C=CC(CC1)c1c2c(O)c2ccncc2c1O (stereo unspecified)
Key: 64.8

Exercise: Ok, now c1c2c(cc(-n3nnc4c3CCCCCC4)c1-n1nnc3c1CCCCCC3)CCCCCC2
Key: 87.3

Exercise: Ok, now NNC(=O)c1ccccc1SSc1ccccc1C(=O)NN
Key: 99.4

====

# Protocol notes: NCI Yeast Anticancer Drug Screen. Data for the mlh1 rad18 strain (AID 175)
# Setup conditions: S. cerevisiae mlh1 rad18 strain growth inhibition; at 5.0 µM (retest, dose inferred, filed as 0.5)
This is part of a sample that, as a whole, favours compounds with a hit. Of some 79,000 tested, about 15% had one in any assay. Active and inactive are the calls of the source. Rule as the data show it: active = growth inhibition above about 70%; inactive = the rest.
Bench note: report the call from label 1 for active, label 0 for inactive

Please review the following examples before continuing.
Chem smiles	Class assignment
COc1cc[c]([Sn]([c]2ccc(OC)cc2)([c]2ccc(OC)cc2)[c]2ccc(OC)cc2)cc1	label 0
Cc1ccccc1N=NC(C(=O)c1ccccc1)C(=O)c1ccccc1	label 0
CCOC(=O)c1c[nH]cc1-c1cn(S(=O)(=O)c2ccccc2)cc1C	label 1
Cc1nc(C)c(C(=O)NNC(=O)C[N+](C)(C)C)cc1C(=O)NNC(=O)C[N+](C)(C)C	label 0

Exercise: Hi, do you know how Cc1ccc(NC(=S)SCc2ccc3c(c2)OCO3)cc1Cl came out in this test?
Key: label 0

====

# Protocol notes: NCI Yeast Anticancer Drug Screen. Data for the sgs1 mgt1 strain (AID 161);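 further: 0% = growth of cultures given vehicle only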
# Setup conditions: S. cerevisiae sgs1 mgt1 strain, at 50.0 µM (retest, dose inferred, filed as 5.0), stronger effect = higher value
Compounds without any hit were thinned out: in the full panel of roughly 79,000, 15% have a hit.
Readout: growth inhibition (%)
Unit % implied. Number only.

Take a look at these entries with their results.
Molecule	growth inhibition [%]
COc1cccc2c1C(=O)c1c(O)c3c(c(O)c1C2=O)C[C@@](O)(/C(C)=N\NC(N)=O)C[C@@H]3OC1CC(N)C(O)C(C)O1 (stereo not given in full)	30
O=Cc1ccc(O)cc1O	15
OC(C1CCCCN1)C1CC(c2ccccc2)Nc2c(Cl)cc(Cl)cc21 (stereo not given)	99
CCN(CC)CCOc1cccc2c1C(=O)c1c(O)cccc1C2=O	54

Exercise: If you can, please state the reported growth inhibition value of CC(Nc1ccc(S(=O)(=O)Nc2ncccn2)cc1)c1ccc2cccnc2c1O (stereo not given) .
Key: 99

====

# Protocol notes: NCI Yeast Anticancer Drug Screen. Data for the cln2 rad14 strain (AID 165);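 further: 0% = growth equal to vehicle treated cultures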
# Setup conditions: S. cerevisiae cln2 rad14 strain, at 5.0 µM (retest, dose inferred, filed as 0.5), stronger effect = higher value
# Method: Growth inhibition of yeast strains with defined genetic alterations is measured as a screen for potential anti-cancer activity. Selected strains with alterations in DNA damage repair or cell cycle control were exposed to compounds and growth inhibition was measured relative to vehicle treated controls. The strain used in this assay is cln2 rad14
About 79,000 compounds went through this panel and 15% of them were active in at least one assay; those are over-represented in the sample as a whole. The source made the active and inactive calls. Cut-off read from the data, not from the text of the source: active = growth inhibition above about 70%; inactive = the rest.
Readout: growth inhibition

Exercise: If you can, please state the reported growth inhibition value of CCC1C(c2cccc(OC)c2O)c2cc3c(cc2OC1N1CCCC1)OCO3 (configuration not stated) .
Key: 31% (inactive)

====

# Protocol notes: NCI Yeast Anticancer Drug Screen. Data for the rad50 strain (AID 155);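 further: 0% = growth of vehicle-only cultures of the same strain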
# Setup conditions: S. cerevisiae rad50 strain growth inhibition; at 50.0 µM; stronger effect = higher value
About 79,000 compounds went through this panel and 15% of them were active in at least one assay; those are over-represented in the sample as a whole.
Listing: growth inhibition of selected compounds
Unit % implied. Number only.

Compound	Value unit	growth inhibition
CC(Nc1ccc(S(=O)(=O)Nc2ncccn2)cc1)c1ccc2cccnc2c1O (stereo unspecified)	%	99.5
Cc1cc(NCCCCCCCNc2cc(C)nc3cc(N)ccc23)c2ccc(N)cc2n1	%	79.6

Exercise: If you can, please state the reported growth inhibition value of CC/C(=C(\CC)c1ccc(O)c(CN(CC)CC)c1)c1ccc(OC)cc1 .
Key: 99.4

Exercise: Ok, now CC(C)N(C(=O)CC1(O)CCCCC1)C(C)C
Key: -0.25

====

# Protocol notes: NCI Yeast Anticancer Drug Screen. Data for the sgs1 mgt1 strain (AID 161);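 further: 0% = growth of cultures given vehicle only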
# Setup conditions: S. cerevisiae sgs1 mgt1 strain, at 50.0 µM (retest, dose inferred, filed as 5.0), stronger effect = higher value
# Description: Growth inhibition of yeast strains with defined genetic alterations is measured as a screen for potential anti-cancer activity. Selected strains with alterations in DNA damage repair or cell cycle control were exposed to compounds and growth inhibition was measured relative to vehicle treated controls. The strain used in this assay is sgs1 mgt1
Compounds without any hit were thinned out: in the full panel of roughly 79,000, 15% have a hit.
Readout: growth inhibition (%)
Unit % implied. Number only.

Take a look at these entries with their results.
Molecule	Value unit	growth inhibition
CN1C(/C=C/c2ccc(O)c3ncccc23)CCC2CCCC(O)C21 (stereo unspecified)	%	94
CCOC(=O)Nc1nc2ccc(SC#N)cc2s1	%	96
CCCc1cc2c(cc1COc1ccccc1C(=O)O)OCO2	%	25

Exercise: If you can, please state the reported growth inhibition value of CC(C)CCSc1ncnc2nc[nH]c12 .
Key: 1

Exercise: Ok, now COc1ccc(C(O)(c2ccccc2)c2ccccc2)cc1
Key: 99

Exercise: Ok, now N=c1n(CC(=O)NC23CC4CC(CC(C4)C2)C3)c2ccccc2n1Cc1ccc(Cl)cc1
Key: 14

These measurements were taken from PubChem BioAssay (NCI).
